Listed here are molecules together with their documented inhibition.
assay: M. tuberculosis H37Rv growth inhibitors, H37Rv strain (AID 1626); details: hits give high values, concentration not given here;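 also: bacteria incubated seven days before Alamar blue readout; 0% = bacteria only wells and 100% = bacteria with antibiotic wells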
Screen size: about 220,000 compounds; about 2,000 (0.91%) were called active. Inconclusive results (about 2%) are left out. A selection follows. Measured potencies and affinities stand elsewhere.
Attribute Measured: inhibition (%)

>>> measured_value("N#Cc1c2n(c3c(=O)n(CC(=O)c4ccc(Br)cc4)cnc13)CCCC2")
1.64
>>> measured_value("Cc1cc(C)n(-c2nc(Nc3ccccc3)nc(-n3nc(C)cc3C)n2)n1")
-2.93
>>> measured_value("Cc1cc(C)n(-c2nc(N(C)C)nc(N(C)C)n2)n1")
-2.29
>>> measured_value("Cc1ccc(C)c(CN2C(=O)COc3ccc(C(=O)c4ccccc4C(=O)O)cc32)c1")
15.8
>>> measured_value("CNc1nc(C)nc(-n2nc(C)cc2C)n1")
6.41
>>> measured_value("Cc1cc(C)n(-c2nc(C)nc(N)n2)n1")
-4.82
>>> measured_value("Cc1ccccc1Nc1nc(N)nc(CCl)n1")
77.4
>>> measured_value("CCCCCCCCc1nc(SCC(C)=O)n[nH]1")
8.52
>>> measured_value("O=C1CC(c2ccc(Br)cc2)NC(c2ccc(Br)cc2)C1c1ccccc1 (configuration not stated)")
15.2
>>> measured_value("CN(C)CCCCOc1ccc(Br)cc1Cl")
6.22
>>> measured_value("Cc1cc(NCCO)nc(-n2nc(C)cc2C)n1")
8.23
>>> measured_value("COc1cccc(CNc2ccc(F)c(Cl)c2)c1")
12.1

* * *

assay: M. tuberculosis H37Rv growth inhibitors, H37Rv strain (AID 1626); details: hits give high values, concentration not given here;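 also: bacteria incubated seven days before Alamar blue readout; 0% = bacteria only wells and 100% = bacteria with antibiotic wells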
Out of some 220,000 compounds screened, about 2,000 (0.91%) were called active. Roughly 2% stayed inconclusive and do not appear here. Only a sample is shown. Measured potencies and affinities stand elsewhere.
Listed here are molecules together with their documented inhibition.
Attribute Measured: inhibition (%)

>>> measured_value("Clc1ccc(Cl)c(OCCCCNCc2ccccc2)c1")
11.2
>>> measured_value("COc1cccc(N=Nc2c(N)[nH]n3c(=O)c4c(nc23)CCCC4)c1")
19.3
>>> measured_value("COc1cc(CCNc2ccc3nnc(-c4ccccc4)n3n2)cc(OC)c1OC")
10.3
>>> measured_value("CN1CCN(Cc2ccc(Sc3ccc(Cl)cc3)c([N+](=O)[O-])c2)CC1")
18.9
>>> measured_value("COc1ccccc1N(C)S(=O)(=O)c1ccc(C(=O)OCC(=O)N2CCCCCC2)cc1")
9.09
>>> measured_value("O=C(Cn1nc(C(F)(F)F)c2c1CCCC2)Nc1ccc2c(c1)OCO2")
-0.66
>>> measured_value("CN(C)c1ccc(/C=N/N=C(N)N)cc1[N+](=O)[O-]")
-2.01
>>> measured_value("Cc1ccc2c(c1)NC(=O)C(CC(=O)NCCCN1CCc3ccccc3C1)O2 (stereo not given)")
-7.1
>>> measured_value("O=C(C1CCN(c2nnc(-n3cccc3)s2)CC1)N1CCOCC1")
0.74
>>> measured_value("O=C(C1CCCN(c2nnc(-n3cccc3)s2)C1)N1CCN(c2ccccc2)CC1 (stereo not given)")
63.1
>>> measured_value("Cc1[nH]c2ccccc2c1SCCNC(=O)c1ccc(Br)o1")
-0.07
>>> measured_value("Cc1ccc(-c2[nH]n3c(=O)c4c(nc3c2C)CCCC4)cc1")
5.52
>>> measured_value("Cc1cc(C)c(-c2cc(NC(=O)CSc3nncn3C)n(-c3ccccc3)n2)cc1C")
5.63
>>> measured_value("CNC(=S)Nc1cccc(C(C)=O)c1")
-3.56
>>> measured_value("Cc1cc(C)c(NC(=O)c2c[nH]c(=S)n2-c2ccc(F)cc2)c(C)c1")
-1.12
>>> measured_value("CC(C)NC(=O)COC(=O)c1ccc(Oc2ccccc2)cc1")
-7
>>> measured_value("COc1ccc(-c2c(C)[nH]n3c(=O)c(Cc4ccccc4)c(C)nc23)cc1")
70.9
>>> measured_value("O=C(O)c1ccc(N2C(=O)CC(SC(=NCc3ccc4c(c3)OCO4)Nc3ccccc3)C2=O)cc1 (stereo not given)")
1.43
>>> measured_value("COc1ccc(-n2ccnc2)cc1")
1.8
>>> measured_value("CC1/C(=N/O)CC(c2ccccc2)N(C)C1c1ccccc1 (stereo not given)")
-3.61
>>> measured_value("Cc1nc(SCC(=O)NCc2ccccc2)c2oc3ccccc3c2n1")
-1.12
>>> measured_value("Cc1ccc2nc3c(cc2c1)CC1(C(=O)N(C)C(=O)N(C)C1=O)C1COCCN31 (stereo not given)")
15.8
>>> measured_value("O=c1c2c(nc3c(-c4ccccc4)c[nH]n13)CCCC2")
14.2
>>> measured_value("O=C(NCc1ccco1)C12CC3CC(C1)CC(C(=O)NCc1ccco1)(C3)C2")
-5.09
>>> measured_value("COc1cc(C2NCCc3c2[nH]c2ccccc32)ccc1OC(C)C (stereo not given)")
1.05
>>> measured_value("CCOc1c(OC)ccc2c3c(c(=O)oc12)CCCC3")
12.9
>>> measured_value("COc1ccc(C(=O)CN2C3=NCCCN3c3ccccc32)cc1OC")
-2.22
>>> measured_value("Cc1ccc(C(C)C)c(OCC(O)CN2CCN(CCO)CC2)c1 (stereo not given)")
2.52
>>> measured_value("CC(OC(=O)c1ccccc1O)C(=O)Nc1cccc(Cl)c1 (stereo not given)")
3.01
>>> measured_value("O=C(c1ccc(F)cc1)N1CCN(C2CCC(c3ccccc3)CC2)CC1 (stereo not given)")
5.5
>>> measured_value("COc1ccc(C2NCCc3c2[nH]c2ccccc32)cc1CN1CCc2cc(OC)c(OC)cc2C1C (stereo not given)")
4.52
>>> measured_value("CCCOc1ccc2c3c(c(=O)oc2c1OCCC)CCCC3")
30.6
>>> measured_value("CCCCn1nnnc1SCC(=O)N1CCOCC1")
-13.6
>>> measured_value("O=[N+]([O-])c1cc(S(=O)(=O)Nc2ccccc2)ccc1N1CCN(c2ccc(O)cc2)CC1")
3.41
>>> measured_value("Clc1cc(Br)ccc1OCCCNCc1ccccc1")
23
>>> measured_value("Cc1[nH]n2c(=O)c3c(nc2c1-c1cccc2ccccc12)CCC3")
-8.68
>>> measured_value("CCn1c(SCC(=O)Nc2ccc3c(c2)OCCO3)nnc1-c1c[nH]c2ccccc12")
-6.16
>>> measured_value("CCCS(=O)(=O)c1csc(C(=O)OC)c1N")
-5.25
>>> measured_value("CCC1C(c2ccccc2)N(C)C(c2ccccc2)CC1(O)c1ccccc1 (stereo not given)")
51.8
>>> measured_value("CCOc1ccc(NC(=O)CN2CCN(CC(=O)Nc3ccc(F)cc3)CC2)cc1")
9.61
>>> measured_value("COc1ccc(Nc2oc(COc3ccc(OC)cc3)nc2C#N)cc1")
-0.92
>>> measured_value("Cc1ccc(C(=O)Nc2ccc(N3CCN(S(C)(=O)=O)CC3)cc2)cc1C")
-8.49
>>> measured_value("Cc1c(NC(=O)C(C)OC(=O)Cc2ccccc2)c(=O)n(-c2ccccc2)n1C (stereo not given)")
-13.3
>>> measured_value("Cc1ccccc1CSCCNC(=O)Nc1ccccc1")
-0.63
>>> measured_value("O=C(c1ccc(Cl)c(S(=O)(=O)N2CCCC2)c1)N1CCN(c2ccc(F)cc2)CC1")
3.62
